test_protocol: A CellTox Green Cytotoxicity Assay to monitor cytotoxicity in HepG2 cells - 24 hour (AID 1224878); note: nearly all actives have a fitted effect of over 45% in size
run_conditions: CellTox Green fluorescence; series mostly up to 76.8 µM
Source text: National Center for Advancing Translational Sciences [NCATS] NIH Chemical Genomics Center [NCGC] U.S. Environmental Protection Agency [EPA] National Institutes of Environmental Health Sciences [NIEHS] National Toxicology Program [NTP] Cell-based models are critical for drug discovery. […] Viable cells produce no appreciable increases in fluorescence. Therefore, the fluorescence signal produced by the binding interaction with dead cell DNA is proportional to cytotoxicity. […]
Inconclusive results are not listed. Active and inactive are the calls of the source. Calls come from the whole dose curve; as a rule, active = well fitted activation curve with a large enough effect in the repeat runs; inconclusive = weak or mixed curves; inactive = flat fitted curve, though single readings scatter.
Classes used: y (active), n (inactive)

compound: Cc1cc(=O)c2c(O)c3c(O)cc(=O)c4c3c3c(cc(O)c1c23)C(C)(C)C=4O
classification: y
--
compound: O=Cc1c2ccccc2c(Cl)c2ccccc12
classification: n
--
compound: CC(CN(C)C)C(C)(O)Cc1ccc(Cl)cc1 (configuration not stated)
classification: n
--
compound: CC1CC(C)C(=O)C1=O (configuration not stated)
classification: n
--
compound: O=C1CCCCCCCCCCOCCCCO1
classification: n
--
compound: O=C=Nc1cccc(C(F)(F)F)c1
classification: n
--
compound: Nc1nc2ccc([N+](=O)[O-])cc2s1
classification: y

* * *

test_protocol: qHTS RealTime-Glo MT Cell Viability Assay in HEK293 cells - 16 hour (AID 1224872); note: nearly all actives have a fitted effect of over 50% in size
run_conditions: RealTime-Glo luminescence; series mostly up to 76.8 µM
Results filed as inconclusive are left out. The source made the active and inactive calls. The call rests on the fitted dose curve; in most records, active means well fitted cell-killing curve with a large enough effect in the repeat runs; inconclusive means weak or mixed curves, or effect the other way; inactive means flat fitted curve, though single readings scatter.
Classes used: t (active), f (inactive)

molecule: Clc1cc(Cl)nc(Cl)n1
classification: f

molecule: Nc1nnc(-c2ccc([N+](=O)[O-])o2)o1
classification: f

molecule: COc1cc(N)c(Cl)cc1C(=O)NC1CCN(CCCOc2ccc(F)cc2)CC1OC (stereo not drawn)
classification: t

* * *

test_protocol: qHTS assay for identifying genotoxic compounds that show differential cytotoxicity against isogenic chicken DT40 cell lines with known DNA damage response pathways - Rev3 mutant cell line (AID 743014); note: nearly all actives have a fitted effect of over 55% in size
run_conditions: chicken DT40 Rev3-/- viability, CellTiter-Glo, 40 h; series mostly up to 68.4 µM
Results filed as inconclusive are left out. The source made the active and inactive calls. The call rests on the fitted dose curve; in most records, active means well fitted cell-killing curve with a large enough effect in the repeat runs; inconclusive means weak or mixed curves, or effect the other way; inactive means no such curve, though single readings can be large or run the other way.
Classes used: active, inactive

molecule: CCCCCCCCCCC(=O)O
classification: inactive
--
molecule: Cc1[nH]cnc1CN1CCc2c(c3ccccc3n2C)C1=O
classification: inactive
--
molecule: CC(C)=CCC/C(C)=C/CC/C(C)=C/CCC(=O)OC/C=C(\C)CCC=C(C)C
classification: inactive
--
molecule: O=C1Cc2ccccc2N1c1c(Cl)cccc1Cl
classification: active
--
molecule: C(=C\c1ccccc1)/c1ccccc1
classification: inactive
--
molecule: CC(C)=CCC1C(=O)N(c2ccccc2)N(c2ccccc2)C1=O
classification: active
--
molecule: CCC1CO1 (configuration not stated)
classification: inactive
--
molecule: Nc1cccc2c1CN(C1CCC(=O)NC1=O)C2=O (configuration not stated)
classification: inactive
--
molecule: CC(=O)OCC(=O)NCCCOc1cccc(CN2CCCCC2)c1
classification: inactive
--
molecule: CC1=C(Br)C(=O)C(Br)=C/C1=C(/c1ccccc1S(=O)(=O)O)c1cc(Br)c(O)c(Br)c1C
classification: active
--
molecule: C=COCC(C)C
classification: inactive
--
molecule: O=c1[nH]ncc2ccccc12
classification: inactive
--
molecule: CCc1ccccc1
classification: inactive
--
molecule: CCCCOc1ccc(OCCCN2CCOCC2)cc1
classification: active
--
molecule: CC(C)C(O)(c1ccc(OC(F)(F)F)cc1)c1cncnc1 (configuration not stated)
classification: active
--
molecule: CCCCCCCCN
classification: inactive
--
molecule: CCOC(=O)/C=C/C(=O)OCC
classification: inactive
--
molecule: C=C(C)C(=O)OCCCCCCCCCCCCC
classification: inactive
--
molecule: O=C1c2ccccc2C(=O)C1c1nc2ccccc2c(Br)c1O
classification: inactive
--
molecule: CN1C[C@H](C(=O)N[C@]2(C)O[C@@]3(O)[C@@H]4CCCN4C(=O)[C@H](Cc4ccccc4)N3C2=O)C[C@@H]2c3cccc4[nH]cc(c34)C[C@H]21
classification: active
--
molecule: CC1(C)[C@@H](OC(=O)CCC(=O)O)CC[C@]2(C)[C@H]3C(=O)C=C4[C@@H]5C[C@@](C)(C(=O)O)CC[C@]5(C)CC[C@@]4(C)[C@]3(C)CC[C@@H]12
classification: inactive
--
molecule: O=[N+]([O-])c1ccc(O/N=C/c2cc(Br)c(O)c(Br)c2)c([N+](=O)[O-])c1
classification: inactive
--
molecule: Cc1cc(C)c(N)cc1C
classification: inactive
--
molecule: C=C1CCC2CC1C2(C)C (configuration not stated)
classification: inactive
--
molecule: COC(=O)CCS
classification: inactive
--
molecule: CC(=O)Nc1ccc(C)cc1C
classification: inactive
--
molecule: COc1ccccc1NC(=O)c1cc2ccccc2cc1O
classification: active
--
molecule: CO[C@]1(NC(=O)CSC(F)F)C(=O)N2C(C(=O)O)=C(CSc3nnnn3CCO)CO[C@H]21
classification: inactive
--
molecule: CCOC(=O)c1ccc(I)cc1
classification: inactive
--
molecule: O=C(O)CCc1nc(-c2ccccc2)c(-c2ccccc2)o1
classification: inactive
--
molecule: C=CC(=O)[O-].C=CC(=O)[O-].[Zn+2]
classification: inactive
--
molecule: CCCC(=O)C(=O)O
classification: inactive

* * *

test_protocol: qHTS assay to identify small molecule antagonists of the estrogen related receptor (ERR) signaling pathway from Tox21 library (AID 1224848); note: nearly all actives have a fitted effect of over 50% in size
run_conditions: ERR reporter cell line, luciferase antagonist mode, 18 h; series mostly up to 92.4 µM
Results filed as inconclusive are left out. Activity calls are given as the source filed them. Calls come from the whole dose curve; as a rule, active = well fitted inhibition curve with a large enough effect in the repeat runs; inconclusive = weak or mixed curves; inactive = no such curve, though single readings can be large or run the other way.
Classes used: active, inactive

molecule: NCCNCCO
classification: inactive
//
molecule: C=C(C)C(=O)OCCOCCOC(=O)C(=C)C
classification: inactive
//
molecule: CC(C)(C)CC(=O)OCC(=O)[C@@]1(O)CC[C@H]2[C@@H]3CCC4=CC(=O)C=C[C@]4(C)[C@H]3[C@@H](O)C[C@@]21C
classification: active
//
molecule: CN(C)CCC=C1c2ccccc2C=Cc2ccccc21
classification: inactive
//
molecule: CS(=O)(=O)c1ccc(-c2cn3ccccc3n2)cc1
classification: inactive
//
molecule: O=C=Nc1cccc(C(F)(F)F)c1
classification: active
//
molecule: C[C@]12CC[C@@H]3c4ccc(O)cc4CC[C@H]3[C@@H]1CC[C@@H]2OC(=O)CCC1CCCC1
classification: active
//
molecule: C[C@@]12CCC[C@H]1[C@@H]1CC[C@H]3C[C@@H](O)CC[C@]3(C)[C@H]1CC2
classification: inactive
//
molecule: CC(CCC(=O)O)C(=O)O (configuration not stated)
classification: inactive
//
molecule: CCCCCC[C@@H](O)C/C=C\CCCCCCCC(=O)O
classification: inactive
//
molecule: Cc1[nH]cnc1CN1CCc2c(c3ccccc3n2C)C1=O
classification: inactive
//
molecule: N#[N+]c1ccc2c(S(=O)(=O)[O-])cccc2c1O
classification: inactive
//
molecule: O=C1c2ccccc2C(=O)c2c(O)c(O)cc(O)c21
classification: inactive
//
molecule: OC1(c2ccccc2)CCNCC1
classification: inactive
//
molecule: COC(=O)C1=C(C)NC(C)=C(C(=O)O[C@@H]2CCCN(Cc3ccccc3)C2)[C@@H]1c1cccc([N+](=O)[O-])c1
classification: active
//
molecule: CC(=O)Nc1ccc(C)cc1C
classification: inactive
//
molecule: C=C(C)[C@@H]1CCC2=CCC[C@@H](C)[C@]2(C)C1
classification: inactive
//
molecule: CC1CC(OC(=O)C(O)c2ccccc2)CC(C)(C)N1C (configuration not stated)
classification: inactive
//
molecule: CCCCCC#CC(=O)OC
classification: inactive
//
molecule: CC(C)=CCC/C(C)=C/CC/C(C)=C/C(=O)OCC(=O)[C@@]1(O)CC[C@H]2[C@@H]3CCC4=CC(=O)C=C[C@]4(C)[C@H]3[C@@H](O)C[C@@]21C
classification: active
//
molecule: O=Cc1c2ccccc2c(Cl)c2ccccc12
classification: active
//
molecule: Oc1cccc(O)c1O
classification: inactive
//
molecule: C[C@H]1C[C@H](O)c2ccsc2S1(=O)=O
classification: inactive
//
molecule: COc1cc(C(=O)NCCCCCC(=O)O)cc(OC)c1OC
classification: inactive
//
molecule: CCCC(C(=O)OCCN(CC)CC)(c1ccccc1)c1ccccc1
classification: active
//
molecule: C[C@@H](O[C@H]1OCCN(Cc2n[nH]c(=O)[nH]2)[C@H]1c1ccc(F)cc1)c1cc(C(F)(F)F)cc(C(F)(F)F)c1
classification: active
//
molecule: OC[C@H]1O[C@@H](n2cnc3c(=S)nc[nH]c32)[C@H](O)[C@@H]1O
classification: active
//
molecule: c1csc(SSc2cccs2)c1
classification: active
//
molecule: CCOC(=O)c1ccccc1C(=C1C=C(Br)C(=O)C(Br)=C1)c1cc(Br)c(O)c(Br)c1
classification: active
//
molecule: O=C1Cc2cc(Cl)ccc2N1
classification: inactive
//
molecule: CC(=O)Oc1ccc([N+](=O)[O-])cc1CCl
classification: inactive
//
molecule: OCCN1CCN(CCCN2c3ccccc3Sc3ccc(Cl)cc32)CC1
classification: active
